Target: T1, extracellular domain of human CD73 protein (CD73-ECD), C-terminus polyhistidine-tagged (UniProt P21589 27-547)
T1 chain: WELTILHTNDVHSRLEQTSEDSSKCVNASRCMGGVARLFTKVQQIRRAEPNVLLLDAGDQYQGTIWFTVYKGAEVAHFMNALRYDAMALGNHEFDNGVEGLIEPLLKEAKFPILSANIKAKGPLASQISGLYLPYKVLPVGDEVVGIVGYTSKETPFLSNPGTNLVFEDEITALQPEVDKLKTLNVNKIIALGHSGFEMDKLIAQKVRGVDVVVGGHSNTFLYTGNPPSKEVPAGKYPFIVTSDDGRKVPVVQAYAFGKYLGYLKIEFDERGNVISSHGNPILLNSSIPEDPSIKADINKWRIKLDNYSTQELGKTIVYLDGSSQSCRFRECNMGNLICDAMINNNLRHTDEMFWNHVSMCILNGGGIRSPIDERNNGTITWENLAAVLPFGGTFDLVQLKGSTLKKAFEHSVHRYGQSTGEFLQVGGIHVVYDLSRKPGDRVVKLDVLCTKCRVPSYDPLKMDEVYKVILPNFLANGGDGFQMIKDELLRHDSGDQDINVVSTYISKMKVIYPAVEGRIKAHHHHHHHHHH
Test: ELISA
Would you mind telling me the reported EC50 of each entry?
Write down the numeric answer in nM and omit the unit.

Please give the documented EC50 of Hu001c-22 (antibody, V domains shown) VH: QVQLVQSGAEVKKPGASVKVSCKASGYTFTNYYIYWVKQRPGQRLEWIGWIYPGNLNIKYNEKFKGRVTITADKSASTAYMELSSLRSEDTAVYYCARDDNYAWFAYWGQGTLVTVSS VL: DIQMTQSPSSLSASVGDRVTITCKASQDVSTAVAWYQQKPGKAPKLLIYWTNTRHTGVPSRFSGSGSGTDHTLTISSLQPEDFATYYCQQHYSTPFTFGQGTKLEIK
0.032

// Input: Hu002c-2 (antibody, V domains shown) VH: QVQLVQSGAEVKKPGASVKVSCKASGYTLTSYWMHWVRQAPGQGLEWMGEINPSQGRSNYNEKFKSRVTMTRDTSTSTVYMELSSLRSEDTAVYYCARRGVSGNYFDYWGQGTLVTVSS VL: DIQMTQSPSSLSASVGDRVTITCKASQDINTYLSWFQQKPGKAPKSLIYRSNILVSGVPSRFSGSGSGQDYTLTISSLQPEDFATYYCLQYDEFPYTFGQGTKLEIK . Output its EC50 only.
0.131

Tell us which EC50 value is on record for Hu002c-14 (antibody, V domains shown) VH: QVQLVQSGAEVKKPGASVKVSCKASGYTLTSYWMHWVKKAPGQGLEWIGEINPSQGRSNYNEKFKSKVTLTVDRSTSTVYMELSSLRSEDTAVYYCARRGVSGNYFDYWGQGTLVTVSS VL: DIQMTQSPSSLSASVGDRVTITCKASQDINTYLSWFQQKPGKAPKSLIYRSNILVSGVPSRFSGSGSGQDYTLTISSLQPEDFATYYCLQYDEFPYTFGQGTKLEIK
0.101

Tell me EC50 reported for Hu002c-15 (antibody, V domains shown) VH: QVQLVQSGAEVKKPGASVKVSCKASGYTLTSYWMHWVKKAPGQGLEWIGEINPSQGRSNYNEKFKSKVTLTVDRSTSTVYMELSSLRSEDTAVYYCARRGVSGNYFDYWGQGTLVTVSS VL: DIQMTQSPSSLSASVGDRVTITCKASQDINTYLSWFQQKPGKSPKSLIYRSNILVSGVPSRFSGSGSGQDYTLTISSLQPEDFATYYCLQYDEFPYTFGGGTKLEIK
0.104

Please supply the value of reported EC50 for the item Hu002c-6 (antibody, V domains shown) VH: QVQLVQSGAEVKKPGASVKVSCKASGYTLTSYWMHWVRQAPGQGLEWIGEINPSQGRSNYNEKFKSRVTLTVDRSTSTVYMELSSLRSEDTAVYYCARRGVSGNYFDYWGQGTLVTVSS VL: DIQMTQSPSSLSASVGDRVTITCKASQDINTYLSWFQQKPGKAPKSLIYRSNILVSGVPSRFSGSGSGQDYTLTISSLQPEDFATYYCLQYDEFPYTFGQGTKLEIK
0.091
